Cited source for all entries: patent US20030148958A1

Molecular target: corticotropin releasing factor 1 receptor
Experiment: cell-based or functional assay
Ends that are not written are not given here.
So I've got a bunch of binders here, and I need their CRF1R EC50 values.
Report the figure in nM without appending any unit label.

### Prompt What CRF1R EC50 value was documented for this binder, IVLSLDVPIGLLQILIEIEKQEKEKQQAANNARILARV-NH2 [SEQ ID NO 166] ?
### Response 438

### Prompt What CRF1R EC50 value was documented for this binder, ZGPPISIDLPFYLLRKMIEIEKQEKEKQQAANNRLLLDTI (C-terminal amide) [SEQ ID NO 85] ?
### Response 11

### Prompt What CRF1R EC50 value was documented for this binder, ZGPPISIDVPFQLLRKMIEIEKQEKEKQQATTNARILARV (C-terminal amide) [SEQ ID NO 172] ?
### Response 1000

### Prompt What CRF1R EC50 value was documented for this binder, ZGPPISIDLPFQLLRKMIEIEKQEKEKQQAANNRLLLDTI (C-terminal amide) [SEQ ID NO 84] ?
### Response 82.2
